Measured IC50 accompanies every entry in the list below.
Test system: Vero
Test: Cytotoxicity against african green monkey Vero cells after 72 hrs by MTT assay
Assay type: cell-based
Details: Chlorocebus sabaeus
Endpoint: IC50

- Compound: "CN1CC(c2ccc(C(=O)O)cc2)C2(Cc3ccccc3C2=O)C12C(=O)c1ccccc1C2=O (stereo not drawn)"
  Recorded result: "> 62.5 mg/L"
- Compound: "CN1CC(c2ccc(N3CCOCC3)cc2)C2(Cc3ccccc3C2=O)C12C(=O)c1ccccc1C2=O (stereo not drawn)"
  Recorded result: "> 62.5 mg/L"
- Compound: "CN1CC(c2cncc(-c3ccc(F)cc3)c2)C2(Cc3ccccc3C2=O)C12C(=O)c1ccccc1C2=O (stereo not drawn)"
  Recorded result: "> 62.5 mg/L"
- Compound: "CN1CC(c2ccc(Br)cc2)C2(Cc3ccccc3C2=O)C12C(=O)c1ccccc1C2=O (stereo not drawn)"
  Recorded result: "> 62.5 mg/L"
- Compound: "CN(C)c1ccc(C2CN(C)C3(C(=O)c4ccccc4C3=O)C23Cc2ccccc2C3=O)cc1 (stereo not drawn)"
  Recorded result: "> 62.5 mg/L"
- Compound: "CN1CC(c2ccc(Cl)cc2)C2(Cc3ccccc3C2=O)C12C(=O)c1ccccc1C2=O (stereo not drawn)"
  Recorded result: "> 62.5 mg/L"
- Compound: "CN1CC(c2ccc(OC(F)(F)F)cc2)C2(Cc3ccccc3C2=O)C12C(=O)c1ccccc1C2=O (stereo not drawn)"
  Recorded result: "> 62.5 mg/L"
- Compound: "CN1CC(c2cccc3c2OCO3)C2(Cc3ccccc3C2=O)C12C(=O)c1ccccc1C2=O (stereo not drawn)"
  Recorded result: "> 62.5 mg/L"
- Compound: "COc1ccc(C2CN(C)C3(C(=O)c4ccccc4C3=O)C23Cc2ccccc2C3=O)cc1 (stereo not drawn)"
  Recorded result: "> 62.5 mg/L"
- Compound: "CN1CC(c2ccccc2)C2(Cc3ccccc3C2=O)C12C(=O)c1ccccc1C2=O (stereo not drawn)"
  Recorded result: "> 62.5 mg/L"
- Compound: "NNC(=O)c1ccncc1 [ISONIAZID]"
  Recorded result: "> 62.5 mg/L"
- Compound: "CN1CC(c2cccc([N+](=O)[O-])c2)C2(Cc3ccccc3C2=O)C12C(=O)c1ccccc1C2=O (stereo not drawn)"
  Recorded result: "> 62.5 mg/L"
- Compound: "CN1CC(c2ccc(C(F)(F)F)cc2)C2(Cc3ccccc3C2=O)C12C(=O)c1ccccc1C2=O (stereo not drawn)"
  Recorded result: "> 62.5 mg/L"
